system: OVCAR-3 ovarian; assay: NCI tumour cell line growth inhibition, 48 h
Class rule met: TGI at least 30 µM. Class rule not met: TGI below 30 µM.

// query Given `CC1(C)C[C@H]2C3=CC[C@@H]4[C@@]5(C)CC[C@H](O)C(C)(C)[C@@H]5CC[C@@]4(C)[C@]3(C)C[C@@H](O)[C@@]23C[C@@H]1OC3=O` , state whether its TGI is at least 30 µM.
// result rule met

// query Given `Cc1nc2c(s/c(=N\N)n2-c2ccccc2)c(=O)[nH]1` , state whether its TGI is at least 30 µM.
// result rule met

// query Given `COc1ccc2cc(CNCCCN3CCN(CCCNCc4ccc5cc(OC)ccc5c4)CC3)ccc2c1` , state whether its TGI is at least 30 µM.
// result rule not met

// query Given CCOC(=O)c1c(-c2ccc(Cl)cc2)c(C#N)c(=S)n(C2OC(CO)C(O)C(O)C2O)c1-c1ccccc1 (stereo not drawn) , state whether its TGI is at least 30 µM.
// result rule met

// query Given `N#Cc1c(C(N)=O)ncn1Cc1ccccc1` , state whether its TGI is at least 30 µM.
// result rule met

// query Given `C=C1C(=O)O[C@H]2[C@H]1CC/C(Cn1cc(Cn3ccc4cc(Cl)ccc43)nn1)=C\CC[C@@]1(C)O[C@@H]21` , state whether its TGI is at least 30 µM.
// result rule not met

// query Given `COc1ccc2c(c1)-c1c(c3ccccc3n1CCN1CCCCC1)CC2` , state whether its TGI is at least 30 µM.
// result rule not met

// query Given `COC1(OC)C[C@H](C)[C@@]23O[C@]24c2cc(O)c5c(c2N[C@H]3C#C/C=C\C#C[C@]14O)C(=O)c1ccccc1C5=O` , state whether its TGI is at least 30 µM.
// result rule not met

---

tested on: HOP-62 NSCLC; assay: NCI tumour cell line growth inhibition, 48 h; in the data active = GI50 below about 0.43 µM; inactive = the rest
In this exercise, the only acceptable responses are y for active, n for inactive

// query Given `Cc1ccc(-c2nc3nc(-c4ccc(Cl)cc4)nc(N4CCCNCC4)c3o2)cc1` , state the outcome it received in this test.
// result n

// query Given `CN(C)c1ccc2[nH]c(O)c(C=Nc3ccc(S(N)(=O)=O)cc3)c2c1` , state the outcome it received in this test.
// result n

// query Given `O=C(c1cccs1)c1c(C(F)(F)F)n([O-])c2cc(C(F)(F)F)ccc2[n+]1=O` , state the outcome it received in this test.
// result y

// query Given `CC(=O)[CH-]C(C)=O.CC(=O)[CH-]C(C)=O.CC(=O)[CH-]C(C)=O.[Cl-].[Hf+4]` , state the outcome it received in this test.
// result n

// query Given CC1=C([Se]CC(OC(=O)[C@@H](CSSC(C)(C)C)NC(=O)C(C)(C)C)C(=O)NCCCCCC(=O)OCc2ccccc2)C(=O)c2ccccc2C1=O (stereo partly drawn) , state the outcome it received in this test.
// result n

// query Given `CNC(=O)c1ccc(Nc2nc(OC3CCCC3)c3c(-c4ccc5nc(C)oc5c4)c[nH]c3n2)c(OC)c1` , state the outcome it received in this test.
// result n

// query Given `Cc1cc(S(=O)(=O)/N=C(\N)n2nc(C)c(C)c2C)c(SCc2ccccc2)cc1Cl` , state the outcome it received in this test.
// result n

// query Given `CCOC(=O)c1ccc2[nH]c(Cc3[nH]c4ccc(C(=O)OCC)cc4c3C)c(C)c2c1` , state the outcome it received in this test.
// result n

---

system: NCI-H226 lung; experiment: NCI tumour cell line growth inhibition, 48 h
Measurement Type: TGI (µM)
Lab book: enter the figure in µM, no units written.

// query Fill in: TGI of O=C(/C=C/C12c3ccccc3C(c3ccccc31)C1C(=O)NC(=O)C12)c1ccco1 (stereo unspecified) is ___
// result 9.85

// query Fill in: TGI of `CN1CCN(CCCOc2ccc3ncnc(Nc4ccc(Oc5cccc(C(F)(F)F)c5)c(Cl)c4)c3c2)CC1` is ___
// result 52

// query Fill in: TGI of `CC(=O)CCC(=O)CC(O)(C(F)(F)F)C(F)(F)F` is ___
// result 24.7

// query Fill in: TGI of COC(=O)CC1CN(C(=O)OCc2ccccc2)C(C)(C)O1 (stereo unspecified) is ___
// result 22.7

---

system: HCT-116 colon; assay: NCI tumour cell line growth inhibition, 48 h
Measurement Type: GI50

// query Under HCT-116 colon: GI50 value of `COc1ccc2c(c1)/C(=C/c1c(-c3ccc(C)cc3)nc3sc(C)cn13)C(=O)N2` ?
// result 4710 nM

// query Under HCT-116 colon: GI50 value of `C[C@@H](Oc1cc(-c2cnn(C3CC4(CCNCC4)C3)c2)cnc1N)c1c(F)ccc(Cl)c1Cl` ?
// result 671 nM

// query Under HCT-116 colon: GI50 value of `C=C1C(=O)O[C@H]2[C@H]1CC/C(Cn1cc(Cn3ccc4cc(Cl)ccc43)nn1)=C\CC[C@@]1(C)O[C@@H]21` ?
// result 1500 nM

// query Under HCT-116 colon: GI50 value of `COc1cc(/C=C2\C[C@H]3[C@@H]4CC=C5C[C@@H](OC(C)=O)CC[C@]5(C)[C@H]4CC[C@]3(C)[C@H]2OC(C)=O)ccc1OCCCn1ccnc1` ?
// result 7780 nM

// query Under HCT-116 colon: GI50 value of `N#Cc1c(N)nc(N2CCOCC2)c(C#N)c1-c1cccc(O)c1` ?
// result > 100000 nM

// query Under HCT-116 colon: GI50 value of `C=C1C(=O)O[C@H]2[C@H]1CC/C(COC(=O)NCCc1c[nH]c3ccccc13)=C\CC[C@@]1(C)O[C@@H]21` ?
// result 1010 nM

// query Under HCT-116 colon: GI50 value of `CCN(CC)CCCN1C(=O)c2c(c(C)c3c(oc4cc(O)ccc43)c2C)C1=O` ?
// result 1620 nM

// query Under HCT-116 colon: GI50 value of `O=C(Nc1nc(-c2ccc(Cl)cc2)cs1)c1ccc(O)c(O)c1` ?
// result 3710 nM

---

tested on: SK-MEL-5 melanoma; assay: NCI tumour cell line growth inhibition, 48 h
Measurement Type: TGI

// query Fill in: TGI of Cc1ccc(C2=NN(C)COC2C(F)(F)F)cc1 (configuration not stated) is ___
// result > 100 µM

// query Fill in: TGI of O=C1OC(c2ccccc2)(c2ccccc2)CC1CN1CCOCC1 (configuration not stated) is ___
// result > 100 µM

// query Fill in: TGI of `C/C=C/CP(=O)(c1ccccc1)c1ccccc1` is ___
// result > 100 µM

// query Fill in: TGI of `Cc1c(C(=O)Nc2ccc(Cl)c(C(F)(F)F)c2)oc2cc(O)ccc2/c1=N\NC(N)=S` is ___
// result > 100 µM

// query Fill in: TGI of `CCN(CC)/C(=C\Cl)Nc1ccccn1` is ___
// result > 100 µM

// query Fill in: TGI of `CN(C)Cc1cc(C(=O)/C=C/c2c(Cl)cccc2Cl)cc(CN(C)C)c1O` is ___
// result 13.9 µM

// query Fill in: TGI of `N#Cc1c(C(N)=O)ncn1Cc1ccccc1` is ___
// result > 100 µM

// query Fill in: TGI of `CCOC(=O)c1ccc2[nH]c(Cc3[nH]c4ccc(C(=O)OCC)cc4c3C)c(C)c2c1` is ___
// result 14.5 µM

// query Fill in: TGI of `Cc1c(Cl)c(=O)oc2cc(OCC(=O)c3ccccc3)ccc12` is ___
// result > 100 µM

// query Fill in: TGI of O=C(CC1(O)C(=O)Nc2ccccc21)c1ccc(O)cc1O (configuration not stated) is ___
// result > 100 µM

// query Fill in: TGI of `O=C(/C=C/c1ccc2c(c1)OCO2)c1ccccc1` is ___
// result 29.4 µM

// query Fill in: TGI of `O=c1oc2ccccc2c(O)c1C(c1ccc2ccccc2c1)c1c(O)c2ccccc2oc1=O` is ___
// result 54.4 µM

// query Fill in: TGI of `Fc1ccc(Nc2ccc3cc(OCCCN4CCOCC4)ccc3n2)cc1F` is ___
// result 3.49 µM

// query Fill in: TGI of `COc1ccc(/C(Cl)=C(\C=O)c2cc(OC)c(OC)c(OC)c2)cc1OC` is ___
// result > 100 µM

// query Fill in: TGI of `CC(=O)/C(=C/N1C(=O)CC(=O)NC1=S)C(=O)Nc1ccccc1C` is ___
// result > 100 µM

// query Fill in: TGI of O=C1CC(c2ccccc2)NCN1 (configuration not stated) is ___
// result > 100 µM

// query Fill in: TGI of `COc1ccc(C(=O)c2ccc(OC)cc2OC)cc1` is ___
// result 5.32 µM

// query Fill in: TGI of `Cc1nn(-c2ccccc2)c2nc3c(c(C)nn3-c3ccccc3)c(-c3ccccc3Br)c12` is ___
// result > 100 µM

// query Fill in: TGI of `Cc1cc(Nc2ncc(Cl)c(Nc3ccccc3S(=O)(=O)C(C)C)n2)c(OC(C)C)cc1C1CCNCC1` is ___
// result 2.73 µM

// query Fill in: TGI of O=C1CCC(NC(=O)Cc2ccc(O)cc2)C(=O)N1 (configuration not stated) is ___
// result > 2500 µM

// query Fill in: TGI of `O=C(/C=C/c1c(O)c2ccccc2[nH]c1=O)CC(=O)C(=O)Nc1cccc(O)c1` is ___
// result > 100 µM

// query Fill in: TGI of CCCCC1Cc2cc(OC)ccc2-c2nc3cc(OC)ccc3n21 (configuration not stated) (tested in a mixture with another compound) is ___
// result 27.4 µM
